Values from patent US20220363718A1

Recorded measurements of CCL17 % Inhibition @ 10 µM, 50 pM TSLP, one per entry
Target or system: TSLP (as used in the human PBMC assay) (UniProt Q969D9 29-159)
Test: cell-based or functional assay
*1 amine or outer side, *2 acyl side, *3 side chain or, on linkers, in order; H or OH if unused. Bridges are numbered along the chain shown (N, C = ends). Where no end group is shown, it is not given here. [ ]: non-standard residue; d: D form. The star is where a group is joined. TATA = O=C(CC[*:1])N1CN(C(=O)CC[*:2])CN(C(=O)CC[*:3])C1; Trp(1-Me) = Cn1cc(C[C@H](N)C(=O)O)c2ccccc21; Arg(Me2a) = CN(C)C(=N)NCCC[C@H](N)C(=O)O; Phe(4-F) = N[C@@H](Cc1ccc(F)cc1)C(=O)O; 1Nal = N[C@@H](Cc1cccc2ccccc12)C(=O)O; tBuAla = CC(C)(C)C[C@H](N)C(=O)O; NMeA = CN[C@@H](C)C(=O)O; Octanoyl = CCCCCCCC(=O)*

Binder: Octanoyl-C[NMeA][Trp(1-Me)][tBuAla]QDC[Trp(1-Me)][Arg(Me2a)]G[Phe(4-F)]C-NH2 (linker 1-7-12 via TATA; SMILES CCCCCCCC(=O)N[C@H]1CSCCC(=O)N2CN3CN(C2)C(=O)CCSC[C@H](NC(=O)[C@H](CC(=O)O)NC(=O)[C@H](CCC(N)=O)NC(=O)[C@H](CC(C)(C)C)NC(=O)[C@H](Cc2cn(C)c4ccccc24)NC(=O)[C@H](C)N(C)C1=O)C(=O)N[C@@H](Cc1cn(C)c2ccccc12)C(=O)N[C@@H](CCCNC(=N)N(C)C)C(=O)NCC(=O)N[C@@H](Cc1ccc(F)cc1)C(=O)N[C@H](C(N)=O)CSCCC3=O) [Example 15]
CCL17 % Inhibition @ 10 µM, 50 pM TSLP (%): 58
--
Binder: CQWXEDCWRGXC (not fully specified; Ac-CQW[tBuA]EDCWRG[4-FPhe]C; 3 Cys cyclised with TATA) [Example 4]
CCL17 % Inhibition @ 10 µM, 50 pM TSLP (%): 47
--
Binder: Ac-C[NMeA][1Nal][tBuAla]QDC[Trp(1-Me)][Arg(Me2a)]G[Phe(4-F)]C[dA] (linker 1-7-12 via TATA; not fully specified (C-terminus)) [Example 29]
CCL17 % Inhibition @ 10 µM, 50 pM TSLP (%): 61
